Reported viability at 5 µM values are given for each entry in this list.
Procedure summary: MTT cytotoxicity assay, HEK293-T
Protocol conditions: human, HEK293-T cells

{"Compound": "CC1=[N+]([O-])C(c2ccc(Cl)cc2)Nc2c(Br)cc(I)cc21 (stereo not drawn)", "U": "%", "viability at 5 µM": 44.6}
{"Compound": "COc1ccc(C2Nc3c(Br)cc(I)cc3C(C)=[N+]2[O-])cc1 (stereo not drawn)", "U": "%", "viability at 5 µM": 81.4}
{"Compound": "CC1=[N+]([O-])C(c2ccc(Cl)cc2)Nc2c(I)cc(Br)cc21 (stereo not drawn)", "U": "%", "viability at 5 µM": 55.4}
{"Compound": "CC1=[N+]([O-])C(c2ccc(Cl)cc2)Nc2ccc(Br)cc21 (stereo not drawn)", "U": "%", "viability at 5 µM": 62.9}
{"Compound": "CC1=[N+]([O-])C(c2ccc(F)cc2)Nc2c(Br)cc(I)cc21 (stereo not drawn)", "U": "%", "viability at 5 µM": 70.1}
{"Compound": "COc1ccc(C2Nc3ccc(Br)cc3C(C)=[N+]2[O-])cc1 (stereo not drawn)", "U": "%", "viability at 5 µM": 60.1}
{"Compound": "CC1=[N+]([O-])C(c2ccccc2)Nc2c(Br)cc(I)cc21 (stereo not drawn)", "U": "%", "viability at 5 µM": 75}
{"Compound": "CC1=[N+]([O-])C(c2ccc(F)cc2)Nc2ccc(I)cc21 (stereo not drawn)", "U": "%", "viability at 5 µM": 55.2}
{"Compound": "COc1ccc(C2Nc3c(I)cc(Br)cc3C(C)=[N+]2[O-])cc1 (stereo not drawn)", "U": "%", "viability at 5 µM": 69.4}
{"Compound": "CC1=[N+]([O-])C(c2ccc(F)cc2)Nc2c(I)cc(Br)cc21 (stereo not drawn)", "U": "%", "viability at 5 µM": 72.8}
{"Compound": "CC1=[N+]([O-])C(c2ccccc2)Nc2ccc(Br)cc21 (stereo not drawn)", "U": "%", "viability at 5 µM": 63.4}
{"Compound": "CC1=[N+]([O-])C(c2ccccc2)Nc2c(I)cc(Br)cc21 (stereo not drawn)", "U": "%", "viability at 5 µM": 33.9}
{"Compound": "CC1=[N+]([O-])C(c2ccccc2)Nc2ccc(I)cc21 (stereo not drawn)", "U": "%", "viability at 5 µM": 60}
{"Compound": "CC1=[N+]([O-])C(c2ccc(F)cc2)Nc2ccc(Br)cc21 (stereo not drawn)", "U": "%", "viability at 5 µM": 41.3}
{"Compound": "COc1ccc(C2Nc3ccc(I)cc3C(C)=[N+]2[O-])cc1 (stereo not drawn)", "U": "%", "viability at 5 µM": 32.6}

* * *

Reported Cell viability percentage, A549 values are given for each entry in this list.
System: lung cancer (A549) cell line
Procedure summary: MTT cytotoxicity assay, A549
Protocol conditions: Conc. 10 (µM per method); Table S3
Result type: Cell viability percentage, A549

{"Compound": "CC1=[N+]([O-])C(c2ccccc2)Nc2c(I)cc(Br)cc21 (centres unmarked)", "Test system": "lung cancer (A549) cell line", "Test value": "61,098%"}
{"Compound": "CC1=[N+]([O-])C(c2ccc(F)cc2)Nc2c(Br)cc(I)cc21 (centres unmarked)", "Test system": "lung cancer (A549) cell line", "Test value": "62,0205%"}
{"Compound": "CC1=[N+]([O-])C(c2ccccc2)Nc2ccc(I)cc21 (centres unmarked)", "Test system": "lung cancer (A549) cell line", "Test value": "52,0419%"}
{"Compound": "CC1=[N+]([O-])C(c2ccccc2)Nc2ccc(Br)cc21 (centres unmarked)", "Test system": "lung cancer (A549) cell line", "Test value": "54,0443%"}
{"Compound": "CC1=[N+]([O-])C(c2ccc(Cl)cc2)Nc2ccc(Br)cc21 (centres unmarked)", "Test system": "lung cancer (A549) cell line", "Test value": "54,3481%"}
{"Compound": "CC1=[N+]([O-])C(c2ccc(Cl)cc2)Nc2ccc(I)cc21 (racemic)", "Test system": "lung cancer (A549) cell line", "Test value": "50,6131%"}
{"Compound": "COc1ccc(C2Nc3c(I)cc(Br)cc3C(C)=[N+]2[O-])cc1 (centres unmarked)", "Test system": "lung cancer (A549) cell line", "Test value": "60,333%"}
{"Compound": "COc1ccc(C2Nc3c(Br)cc(I)cc3C(C)=[N+]2[O-])cc1 (centres unmarked)", "Test system": "lung cancer (A549) cell line", "Test value": "43,6627%"}
{"Compound": "CC1=[N+]([O-])C(c2ccccc2)Nc2c(Br)cc(I)cc21 (centres unmarked)", "Test system": "lung cancer (A549) cell line", "Test value": "61,413%"}
{"Compound": "CC1=[N+]([O-])C(c2ccc(Cl)cc2)Nc2c(I)cc(Br)cc21 (centres unmarked)", "Test system": "lung cancer (A549) cell line", "Test value": "60,0068%"}
{"Compound": "CC1=[N+]([O-])C(c2ccc(F)cc2)Nc2ccc(I)cc21 (centres unmarked)", "Test system": "lung cancer (A549) cell line", "Test value": "61,143%"}
{"Compound": "COc1ccc(C2Nc3ccc(I)cc3C(C)=[N+]2[O-])cc1 (centres unmarked)", "Test system": "lung cancer (A549) cell line", "Test value": "64,8667%"}
{"Compound": "CC1=[N+]([O-])C(c2ccc(F)cc2)Nc2c(I)cc(Br)cc21 (centres unmarked)", "Test system": "lung cancer (A549) cell line", "Test value": "57,7455%"}
{"Compound": "CC1=[N+]([O-])C(c2ccc(F)cc2)Nc2ccc(Br)cc21 (centres unmarked)", "Test system": "lung cancer (A549) cell line", "Test value": "56,1818%"}

* * *

Procedure summary: NO free radical scavenging assay (sodium nitroprusside/Griess)
Protocol conditions: mean ± SD; sodium nitroprusside, Griess reagent, 550 nm
Friendly reminder: IC50 below 5 µM is 1, at or above is -1.

{"Molecule": "CC1=[N+]([O-])C(c2ccc(F)cc2)Nc2ccc(I)cc21 (centres unmarked)", "Assigned label": -1}
{"Molecule": "COc1ccc(C2Nc3c(Br)cc(I)cc3C(C)=[N+]2[O-])cc1 (centres unmarked)", "Assigned label": -1}
{"Molecule": "COc1ccc(C2Nc3ccc(I)cc3C(C)=[N+]2[O-])cc1 (centres unmarked)", "Assigned label": -1}
{"Molecule": "O=C1O[C@H]([C@@H](O)CO)C(O)=C1O [Ascorbic acid, ascorbic acid, reference compound]", "Assigned label": -1}
{"Molecule": "CC1=[N+]([O-])C(c2ccccc2)Nc2c(I)cc(Br)cc21 (centres unmarked)", "Assigned label": -1}
{"Molecule": "CC1=[N+]([O-])C(c2ccc(F)cc2)Nc2c(Br)cc(I)cc21 (centres unmarked)", "Assigned label": 1}
{"Molecule": "CC1=[N+]([O-])C(c2ccc(Cl)cc2)Nc2c(Br)cc(I)cc21 (centres unmarked)", "Assigned label": -1}
{"Molecule": "CC1=[N+]([O-])C(c2ccc(Cl)cc2)Nc2ccc(I)cc21 (racemic)", "Assigned label": 1}

* * *

Procedure summary: MTT cytotoxicity assay, HEK293-T
Protocol conditions: human, HEK293-T cells
Result type: viability at 1 µM (%)

{"Compound": "CC1=[N+]([O-])C(c2ccc(Cl)cc2)Nc2ccc(Br)cc21 (stereo not drawn)", "U": "%", "Test value": 64.7}
{"Compound": "CC1=[N+]([O-])C(c2ccc(F)cc2)Nc2ccc(I)cc21 (stereo not drawn)", "U": "%", "Test value": 72}
{"Compound": "CC1=[N+]([O-])C(c2ccccc2)Nc2ccc(I)cc21 (stereo not drawn)", "U": "%", "Test value": 69.7}
{"Compound": "CC1=[N+]([O-])C(c2ccc(F)cc2)Nc2ccc(Br)cc21 (stereo not drawn)", "U": "%", "Test value": 41.6}
{"Compound": "CC1=[N+]([O-])C(c2ccccc2)Nc2c(I)cc(Br)cc21 (stereo not drawn)", "U": "%", "Test value": 34.9}
{"Compound": "CC1=[N+]([O-])C(c2ccc(F)cc2)Nc2c(Br)cc(I)cc21 (stereo not drawn)", "U": "%", "Test value": 75.1}
{"Compound": "COc1ccc(C2Nc3ccc(I)cc3C(C)=[N+]2[O-])cc1 (stereo not drawn)", "U": "%", "Test value": 33.3}
{"Compound": "CC1=[N+]([O-])C(c2ccc(Cl)cc2)Nc2c(I)cc(Br)cc21 (stereo not drawn)", "U": "%", "Test value": 61.3}
{"Compound": "COc1ccc(C2Nc3ccc(Br)cc3C(C)=[N+]2[O-])cc1 (stereo not drawn)", "U": "%", "Test value": 75.1}
{"Compound": "CC1=[N+]([O-])C(c2ccccc2)Nc2c(Br)cc(I)cc21 (stereo not drawn)", "U": "%", "Test value": 81.2}
{"Compound": "CC1=[N+]([O-])C(c2ccc(Cl)cc2)Nc2c(Br)cc(I)cc21 (stereo not drawn)", "U": "%", "Test value": 45.2}
{"Compound": "CC1=[N+]([O-])C(c2ccc(F)cc2)Nc2c(I)cc(Br)cc21 (stereo not drawn)", "U": "%", "Test value": 67.6}
{"Compound": "COc1ccc(C2Nc3c(Br)cc(I)cc3C(C)=[N+]2[O-])cc1 (stereo not drawn)", "U": "%", "Test value": 83.4}
{"Compound": "CC1=[N+]([O-])C(c2ccccc2)Nc2ccc(Br)cc21 (stereo not drawn)", "U": "%", "Test value": 69.4}
{"Compound": "COc1ccc(C2Nc3c(I)cc(Br)cc3C(C)=[N+]2[O-])cc1 (stereo not drawn)", "U": "%", "Test value": 80.4}
